- System: SMN2 mRNA
- MEASUREMENT NOTES: RT-qPCR splicing assay, SMN2 canonical junction (CJ) mRNA
- Assay type: cell-based, human
- STATED CONDITIONS: Homo sapiens; Table 5 panel; canonical junction qPCR; compound concentration having 50% response in CJ decrease; read-out: SMN2 IC50 (decrease in CJ mRNA levels)
RESULT TYPE: IC50

Worked set:
CCOC(=O)c1cc(-c2ccc3c(=O)n(C4CCNCC4)ccc3c2)nn2cc(C)nc12 [Compound 529]	< 0.1 µM
Cc1cn2cc(-c3ccc4c(=O)n(C5CCNCC5)cc(C)c4c3)cc(F)c2n1 [Compound 440]	< 0.1 µM

Problem: Item under review: Cc1cn2cc(-c3ccc4c(=O)n(C5CCNC6(CC6)C5)cnc4c3)cc(F)c2n1 (stereo not shown) [Compound 236] . Reported IC50?
Solution: < 0.1 µM

Problem: Item under review: Cc1cn2cc(-c3cc(F)c4c(=O)n([C@H]5CC[C@@H](N(C)C)CC5)ccc4c3)cc(F)c2n1 [Compound 656] . Reported IC50?
Solution: < 0.1 µM

Problem: Item under review: Cc1cn2cc(-c3ccc4c(=O)n(C5CCNCC5)ncc4c3)cc(C)c2n1 [Compound 257] . Reported IC50?
Solution: < 0.1 µM

Problem: Item under review: Cc1cn2nc(-c3cc(O)c4c(=O)n(C5CCN(CCF)CC5)ncc4c3)cc(C)c2n1 [Compound 553] . Reported IC50?
Solution: < 0.1 µM

Problem: Item under review: Cc1cn2nc(-c3ccc4c(=O)n([C@H]5CCNC[C@H]5F)cnc4c3)cc(C)c2n1 [Compound 372] . Reported IC50?
Solution: < 0.1 µM

Problem: Item under review: COC(=O)c1cc(-c2ccc3c(=O)n(C4CCNCC4)ccc3c2)nn2cc(C)nc12 [Compound 517] . Reported IC50?
Solution: < 0.1 µM

Problem: Item under review: Cc1cn2nc(-c3ccc4c(=O)n(C5CCNCC5)ncc4c3)cc2c(C)n1 [Compound 260] . Reported IC50?
Solution: 0.1 to 1 µM

Problem: Item under review: Cc1cn2nc(-c3cc(F)c4c(=O)n(C5CCNC6(CC6)C5)ccc4c3)cc(C)c2n1 (stereo not shown) [Compound 380] . Reported IC50?
Solution: < 0.1 µM

Problem: Item under review: Cc1cn2nc(-c3cc(O)c4c(=O)n(C5CCNC5)cc(C)c4c3)cc(C)c2n1 (stereo not shown) [Compound 462] . Reported IC50?
Solution: 0.1 to 1 µM

Problem: Item under review: Cc1cn2cc(-c3cc(F)c4c(=O)n(C5CCNCC5)cnc4c3)cc(F)c2n1 [Compound 230] . Reported IC50?
Solution: < 0.1 µM

Problem: Item under review: Cc1cn2nc(-c3cc(F)c4c(=O)n(C5CCNCC5)ncc4c3)cc(Oc3ccccc3)c2n1 [Compound 548] . Reported IC50?
Solution: < 0.1 µM

Problem: Item under review: Cc1cn2cc(-c3cc(F)c4c(=O)n(C5CC(C)NC(C)C5)ccc4c3)cc(F)c2n1 (stereo not shown) [Compound 651] . Reported IC50?
Solution: < 0.1 µM

Problem: Item under review: Cc1cn2cc(-n3cnc4cc(N5CCN(C)CC5)ccc4c3=O)cc(F)c2n1 [Compound 229] . Reported IC50?
Solution: > 10 µM

Problem: Item under review: Cn1cc2cc(-c3ncc4c(=O)n(C5CCNC5)ccc4n3)c(O)c(F)c2n1 (stereo not shown) [Compound 1223] . Reported IC50?
Solution: < 0.1 µM
